Reported GI50 values for the following molecules.
- Tested on: 786-0
- test-protocol: NCI tumour cell line growth inhibition, 48 h
Activity calls are given as the source filed them. Rule as the data show it: active = GI50 up to about 1.1 µM and inactive = higher.

molecule | GI50
c1c[nH]c(-c2cccc3nsnc23)c1 | > 100 µM (inactive)
C/C(=C1/CCCC2(N=NCC2c2ccccc2)C1=O)c1ccccc1 (configuration not stated) | 46.7 µM (inactive)
NC(=O)SCC(=O)Nc1ccc2ncccc2c1 | 26.8 µM (inactive)
COC(=O)c1c(O)ccc2c1c1c(n2Cc2ccccc2)C(=O)c2ccccc2C1=O | 18.2 µM (inactive)
Cc1nc2cc(N)c(F)cc2[nH]1 | > 100 µM (inactive)
Cn1c2ccccc2c2cc(-c3ccccc3)c3c(c21)C(=O)C=CC3=O | 8.15 µM (inactive)
C[C@@]12[Se]c3ccccc3[C@]1(C)[Se]c1ccccc12 | 4.85 µM (inactive)
C/C(=N\NC(=S)N1CCCCC1)c1cccc(C)n1 | < 0.01 µM (active)
Cc1ccc2c(=O)c(-c3n[nH]c(=S)s3)c[nH]c2n1 | > 100 µM (inactive)
O=C(NCP(=O)(Oc1ccccc1)Oc1ccccc1)OCc1ccccc1 | 53.2 µM (inactive)
CC1=NN(c2cccc(Cl)c2)C2(C1=Cc1ccc(O)cc1)C(Cl)C(=O)N2c1nc2ccccc2s1 (configuration not stated) | 24.3 µM (inactive)
CC(C)NC(C)C(C)c1ccccc1 (configuration not stated) | > 100 µM (inactive)

These measurements were taken from ChEMBL document CHEMBL1201862.
